Each recorded value in this set is attributed to patent US20140213531A1.

Documented % inhibition at 100 µM across a set of binders
Biological target: Trypsin, Iodination grade, from human pancreas (human, UniProt P07477 24-247)
Test: cell-based or functional assay
Provide the reading as a plain figure in %.

binder	% inhibition at 100 µM [%]
FCTXSDPPICY (HELM PEPTIDE1{F.C.T.[Nle].S.D.P.P.I.C.Y.[dP].P}$PEPTIDE1,PEPTIDE1,2:R3-10:R3|PEPTIDE1,PEPTIDE1,1:R1-13:R2$$$V2.0; SMILES CCCC[C@@H]1NC(=O)[C@H]([C@@H](C)O)NC(=O)[C@@H]2CSSC[C@H](NC(=O)[C@H]([C@@H](C)CC)NC(=O)[C@@H]3CCCN3C(=O)[C@@H]3CCCN3C(=O)[C@H](CC(=O)O)NC(=O)[C@H](CO)NC1=O)C(=O)N[C@@H](Cc1ccc(O)cc1)C(=O)N1CCC[C@@H]1C(=O)N1CCC[C@H]1C(=O)N[C@@H](Cc1ccccc1)C(=O)N2) [Example 60]	90

Retrieve % inhibition at 100 µM measured for ICTKSDPPXCR (HELM PEPTIDE1{I.C.T.K.S.D.P.P.[Nle].C.R.[dP].P}$PEPTIDE1,PEPTIDE1,2:R3-10:R3|PEPTIDE1,PEPTIDE1,1:R1-13:R2$$$V2.0; SMILES CCCC[C@@H]1NC(=O)[C@@H]2CCCN2C(=O)[C@@H]2CCCN2C(=O)[C@H](CC(=O)O)NC(=O)[C@H](CO)NC(=O)[C@H](CCCCN)NC(=O)[C@H]([C@@H](C)O)NC(=O)[C@@H]2CSSC[C@H](NC1=O)C(=O)N[C@@H](CCCNC(=N)N)C(=O)N1CCC[C@@H]1C(=O)N1CCC[C@H]1C(=O)N[C@@H]([C@@H](C)CC)C(=O)N2) [Example 57] and print it.
94
